Data provenance is the array DNA melting data of Ke et al. (doi:10.1101/2024.01.08.574731).

Assay: melting temperature; fluorescence melt of hairpins on a sequencing array, two-state fit, raised by 9.35 °C to match UV melts
Settings: sodium 0.088 M
Kind request: treat 50 °C as inclusive, so Tm at 50 °C or higher is Met, anything lower is Not met.

Take a look at these entries with their results.
GTCATTGGAAACGATGAC (((((.(....).))))) | Not met
GTTGCAGGAAACTGCAAC (((((((....))))))) | Met
GCTTAGCGAAAGCCACGC ((.(.((....)).).)) | Not met
GGATGGGGAAACTCGTCC (((.(.(....).).))) | Not met
GCTCAGCGAAAGCAAAGC (((..((....))..))) | Not met
GCAGAGCGAAAGCGCGGC ((.(.((....)).).)) | Met
GATCCCTATGGGGATC ((((((....)))))) | Met
GGCATAGGAAACTATACC ((.((((....)))).)) | Not met
GTTTTTGGAAACAAGAAC (((.(((....))).))) | Not met
GCTTGCGAAAGCAATAGC ((((((....)))..))) | Not met

Identify whether the reported Tm of the following sequence is 50 °C or greater: GATCGCAGGAGCGATC ((((((....)))))) Met

And GGCGGTGCGAAAGCAGCC (((..(((....)))))) ? Met

What do we get for GATCTCTCAGAGATC ((((((...)))))) ? Met

Input GTGATCGGAAACGGTTAC ((.(.((....)).).)) Not met

Try GCGTTCGGAAACGAACAC (.(((((....))))).) next. Not met

Next: GACTGTGGAAACATGGTC (((..((....))..))) Not met

Check GATCTCCACCGAGATC ((((((....)))))) too. Met

Query GAGCGCCGAAAGGCCCTC (((.(((....))).))) next Not met

Try the sequence GGATAGCGAAAGCTCTCC (((.(((....))).))) Not met

Likewise for GAATTCGGAAACGAATCC (.(((((....))))).) ? Not met

// query: GTAGATGGAAACATCTGC (.(((((....))))).) Not met

What do we get for GCCTTTCGAAAGAATGGC (((.(((....))).))) ? Met

###

Test: melting temperature; fluorescence melt of hairpins on a sequencing array, two-state fit, raised by 9.35 °C to match UV melts
Conditions: sodium 0.088 M
RECORDED_METRIC: Tm (°C)
Numbers only; they are read as °C.

GATCCAAAAGTGGATC ((((((....)))))) | 43.9

What value of measured Tm is listed for GATCCGCTTACGGATC ((((((....)))))) ? 59

Query GACGTTGGAAACAGTGTC (((..((....))..))) next 31.2

Record: GCGCGCGAAAGCGGCCGC ((((((....)))..))) 59

For CGTCCGGAAACGGTACG ((((((....))).))) then? 48.1

Then what about the sequence GCCAGAGGAAACTCTGAC (.(((((....))))).) ? 38.6
